# Experimental system: BChE from equine serum (Equus caballus)
# Construct: BChE from equine serum; purchased Sigma, St. Louis, MO, USA; host or cells: equine serum
# Test: In vitro BChE inhibition, modified Ellman's method
# Type: biochemical
# Run conditions: mean ± SD, n = 3; equine serum BChE, 25 °C, pH 7.4; read-out: IC50 BChE
# Description: The ability of all the prepared compounds to inhibit AChE from electric eel (Electrophorus electricus) and BChE from equine serum (both purchased from Sigma, St. Louis, MO, USA) was determined in vitro using a modified Ellman’s method, as described in detail elsewhere. This is a simple, rapid, and direct method to determine the SH and -S-S- group content in proteins. […] The effectiveness of the tested inhibitors is expressed as the IC50 values. […]
Assay metric: IC50 (µM)
Give the value in µM but do not write µM after it.

According to the records, this compound `O=C(Nc1ccc(C(=O)Nc2cc(C(F)(F)F)cc(C(F)(F)F)c2)c(O)c1)OCc1ccccc1` displays IC50 of 146

* * *

# Experimental system: BChE from equine serum (Equus caballus, UniProt P81908)
# Construct: BChE from equine serum; purchased Sigma, St. Louis, MO, USA; host or cells: equine serum
# Sequence (P81908 whole entry): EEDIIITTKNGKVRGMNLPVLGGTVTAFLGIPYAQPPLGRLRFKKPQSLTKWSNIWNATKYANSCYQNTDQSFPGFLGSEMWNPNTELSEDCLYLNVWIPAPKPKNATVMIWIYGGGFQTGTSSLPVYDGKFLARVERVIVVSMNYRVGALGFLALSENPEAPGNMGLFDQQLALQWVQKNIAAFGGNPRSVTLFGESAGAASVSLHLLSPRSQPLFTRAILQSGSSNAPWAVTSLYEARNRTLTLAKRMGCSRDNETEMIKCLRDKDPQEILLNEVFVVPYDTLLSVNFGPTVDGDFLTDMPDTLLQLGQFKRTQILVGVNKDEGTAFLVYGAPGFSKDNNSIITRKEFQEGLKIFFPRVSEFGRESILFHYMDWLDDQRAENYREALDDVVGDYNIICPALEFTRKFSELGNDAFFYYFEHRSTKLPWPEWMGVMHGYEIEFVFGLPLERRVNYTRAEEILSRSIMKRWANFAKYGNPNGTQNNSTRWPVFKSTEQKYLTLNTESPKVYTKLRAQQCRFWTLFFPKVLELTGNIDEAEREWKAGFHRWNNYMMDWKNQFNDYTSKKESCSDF
# Test: In vitro BChE inhibition, modified Ellman's method
# Type: biochemical
Assay metric: pIC50
# pIC50: negative log10 of molar concentration; output just the value

According to the records, this compound O=C(Nc1ccc(C(=O)Nc2c(F)cccc2F)c(O)c1)OCc1ccccc1 [Compound 19] displays pIC50 of 4.37

According to the records, this compound O=C(Nc1ccc(C(=O)Nc2cc(Cl)cc(Cl)c2)c(O)c1)OCc1ccccc1 [Compound 25] displays pIC50 of 3.84

According to the records, this compound O=C(Nc1ccc(C(=O)Nc2ccccc2OC(F)(F)F)c(O)c1)OCc1ccccc1 [Compound 15] displays pIC50 of 4.35

According to the records, this compound O=C(Nc1ccc(C(=O)Nc2c(Cl)cc(Cl)cc2Cl)c(O)c1)OCc1ccccc1 [Compound 31] displays pIC50 of 4.24

According to the records, this compound O=C(Nc1ccc(C(=O)Nc2ccccc2)c(O)c1)OCc1ccccc1 [Compound 1] displays pIC50 of 3.76

According to the records, this compound O=C(Nc1ccc(C(=O)Nc2c(Cl)cccc2Cl)c(O)c1)OCc1ccccc1 [Compound 23] displays pIC50 of 3.93

According to the records, this compound COc1ccc(NC(=O)c2ccc(NC(=O)OCc3ccccc3)cc2O)cc1 [Compound 4] displays pIC50 of 3.81

According to the records, this compound Cc1cccc(NC(=O)c2ccc(NC(=O)OCc3ccccc3)cc2O)c1 [Compound 5] displays pIC50 of 3.78

According to the records, this compound O=C(Nc1ccc(C(=O)Nc2ccccc2F)c(O)c1)OCc1ccccc1 [Compound 6] displays pIC50 of 4.15

* * *

# Experimental system: AChE from electric eel (Electrophorus electricus) (Electrophorus electricus)
# Construct: purchased Sigma, St. Louis, MO, USA
# Sequence (O42275 24-633): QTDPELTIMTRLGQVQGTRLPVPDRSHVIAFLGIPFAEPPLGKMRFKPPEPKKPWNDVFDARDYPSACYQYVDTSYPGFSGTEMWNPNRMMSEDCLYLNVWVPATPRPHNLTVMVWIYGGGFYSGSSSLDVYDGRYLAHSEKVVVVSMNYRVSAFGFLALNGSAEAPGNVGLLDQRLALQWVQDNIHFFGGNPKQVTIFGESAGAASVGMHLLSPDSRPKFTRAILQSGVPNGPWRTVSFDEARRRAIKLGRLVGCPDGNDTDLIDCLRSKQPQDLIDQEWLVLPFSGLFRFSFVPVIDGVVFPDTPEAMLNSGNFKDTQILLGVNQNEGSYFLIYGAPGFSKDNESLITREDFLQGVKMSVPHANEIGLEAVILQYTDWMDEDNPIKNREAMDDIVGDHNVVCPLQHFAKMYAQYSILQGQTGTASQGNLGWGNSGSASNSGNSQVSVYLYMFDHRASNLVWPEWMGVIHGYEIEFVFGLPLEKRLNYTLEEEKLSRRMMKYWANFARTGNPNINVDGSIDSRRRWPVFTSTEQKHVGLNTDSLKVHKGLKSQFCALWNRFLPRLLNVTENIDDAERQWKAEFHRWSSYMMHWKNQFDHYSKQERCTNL
# Test: In vitro AChE inhibition, modified Ellman's method
# Format: biochemical
hey, just use Criterion met if measured IC50 is less than 70 µM, otherwise Criterion not met

Decide: IC50 of `O=C(Nc1ccc(C(=O)Nc2ccc(Cl)cc2)c(O)c1)OCc1ccccc1` strictly below 70 µM? Criterion not met

Decide: IC50 of `O=C(Nc1ccc(C(=O)Nc2c(F)cc(F)cc2F)c(O)c1)OCc1ccccc1` strictly below 70 µM? Criterion met

Decide: IC50 of O=C(Nc1ccc(C(=O)O)c(O)c1)OCc1ccccc1 [CbzPAS, reference compound] strictly below 70 µM? Criterion met

Decide: IC50 of `O=C(Nc1ccc(C(=O)Nc2c(F)cccc2F)c(O)c1)OCc1ccccc1` strictly below 70 µM? Criterion met

Decide: IC50 of `O=C(Nc1ccc(C(=O)Nc2c(Cl)cc(Cl)cc2Cl)c(O)c1)OCc1ccccc1` strictly below 70 µM? Criterion not met

Decide: IC50 of `O=C(Nc1ccc(C(=O)Nc2ccc(Br)cc2Br)c(O)c1)OCc1ccccc1` strictly below 70 µM? Criterion not met

Decide: IC50 of `COc1ccc(NC(=O)c2ccc(NC(=O)OCc3ccccc3)cc2O)cc1` strictly below 70 µM? Criterion met
